# System: asymmetric di-methyl PABP1 in RKO cells
# experiment: In Cell Western (ICW) for asymmetric di-methyl PABP1 and DNA content in RKO cells
# Type: cell-based
# experimental.parameters: Homo sapiens, RKO, In Cell Western
metric: IC50 (µM)

I = CNCCN(C)Cc1cccc(-c2cc(N3CCCC(C#N)C3)c3cnn(C(C)C)c3n2)c1 (centres unmarked) [Compound 55]
II = CC(C)n1ncc2c(C(=O)N(C)Cc3ccccn3)cc(-c3cccc(CN(C)CCN)c3)nc21 [Compound 282]
III = CC(C)n1ncc2c(C(=O)N3CCCCC3)cc(-c3cccc(CN(C)CCN)c3)nc21 [Compound 43]
Input line: Ranking by IC50 (descending) is requested for the entries above. Dear reader, please state the labels in the requested order.
Output line: III, II, I
(III: 20 µM, II: 8.2 µM, I: 4.81 µM)

a = CNCCN(C)Cc1cccc(-c2cc(C(=O)NCC(F)(F)F)c3cnn(C(C)C)c3n2)c1 [Compound 288]
b = CC(C)n1ncc2c(C(=O)NCC3CCOCC3)cc(-c3cccc(CN(C)CCN)c3)nc21 [Compound 108]
c = CC(C)n1ncc2c(C(=O)NCc3cccc4ccnn34)cc(-c3cccc(CN(C)CCN)c3)nc21 [Compound 197]
d = CNCCN(C)Cc1cccc(-c2cc(N(C)C)c3cnn(C(C)C)c3n2)c1 [Compound 103]
e = CN(CCN)Cc1cccc(-c2nc(NC3CCOCC3)c3cnn(C(C)(C)C)c3n2)c1 [Compound 18]
Input line: // smallest IC50 at index 0, largest at the end Present the labels in the sequence the task asks for.
Output line: e, b, c, a, d

a = CNCCN(C)Cc1cccc(-c2cc(C(=O)NCc3cn(C)cn3)c3cnn(C(C)C)c3n2)c1 [Compound 223]
b = CN(CCN)Cc1cccc(-c2nc(NC3CC3)c3cnn(C4CC4)c3n2)c1 [Compound 96]
c = CC(C)n1ncc2c(C(=O)N(C)Cc3cccnc3)cc(-c3cccc(CN(C)CCN)c3)nc21 [Compound 224]
Input line: Rank entries according to their IC50, from the largest number down. Note for the reader: the ranking is given by listing the labels in the order requested.
Output line: b, c, a
